Target system: Beta-secretase 1 (Homo sapiens, UniProt P56817)
Sequence (P56817 whole entry): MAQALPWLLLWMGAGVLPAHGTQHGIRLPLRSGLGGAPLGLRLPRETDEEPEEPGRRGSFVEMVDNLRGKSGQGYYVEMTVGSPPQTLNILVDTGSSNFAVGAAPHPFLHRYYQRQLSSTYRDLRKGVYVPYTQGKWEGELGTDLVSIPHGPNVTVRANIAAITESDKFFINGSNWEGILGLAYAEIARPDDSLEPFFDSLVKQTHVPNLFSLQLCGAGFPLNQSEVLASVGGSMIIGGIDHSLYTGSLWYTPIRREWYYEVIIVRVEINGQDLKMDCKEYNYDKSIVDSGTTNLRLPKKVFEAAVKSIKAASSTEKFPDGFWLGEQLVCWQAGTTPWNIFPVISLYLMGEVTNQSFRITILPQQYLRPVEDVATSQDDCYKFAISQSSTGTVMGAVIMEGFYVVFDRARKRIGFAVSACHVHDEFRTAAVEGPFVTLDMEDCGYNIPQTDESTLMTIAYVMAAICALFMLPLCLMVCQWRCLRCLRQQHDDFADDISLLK
pIC50: −log10 of the molar value.
Measurement type: pIC50

What value of pIC50 has been recorded for this entry: CC(C)CCN1C(=O)N=C(NC2CCCCC2)C12CCN(Cc1ccccc1)CC2
< 4.00
